assay-target: EGFRvIII, full length, overexpressed on glioblastoma cells (human, UniProt P00533 298-623); also: test concentration or dose not given here
test-summary: cell-based or functional assay
Each item that follows carries a reported % survival (DM1 secondary-conjugate ADC surrogate assay, vs mouse IgG).
readout-kind: % survival (DM1 secondary-conjugate ADC surrogate assay, vs mouse IgG) (%)

[[record]]
binder = "F266-11B1 (antibody, V domains shown, Mouse hybridoma mAb) VH: QIQLVQSGPELKKPGETVKISCKASGYTFTTAGMQWVKKMPGKGFKWIGWINTHSGDPKYAEDFKGRFAFSLETYASTAYLQISNLKNEDTASYFCARTHIYDGYNYAMDYWGQGTSVTVSS VL: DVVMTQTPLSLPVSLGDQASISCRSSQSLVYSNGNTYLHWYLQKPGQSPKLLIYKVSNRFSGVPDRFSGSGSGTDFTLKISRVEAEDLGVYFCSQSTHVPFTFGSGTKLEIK"
readout_value = 62

[[record]]
binder = "F263-4E11 (antibody, V domains shown, Mouse hybridoma mAb) VH: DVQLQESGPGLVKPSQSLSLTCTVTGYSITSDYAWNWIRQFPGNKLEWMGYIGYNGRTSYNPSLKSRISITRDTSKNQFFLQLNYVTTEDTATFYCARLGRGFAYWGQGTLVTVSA VL: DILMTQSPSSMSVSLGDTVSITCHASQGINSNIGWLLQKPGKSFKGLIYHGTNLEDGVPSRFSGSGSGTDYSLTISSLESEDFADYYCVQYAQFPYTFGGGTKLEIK"
readout_value = 54

[[record]]
binder = "F263-4B3 (antibody, V domains shown, Mouse hybridoma mAb) VH: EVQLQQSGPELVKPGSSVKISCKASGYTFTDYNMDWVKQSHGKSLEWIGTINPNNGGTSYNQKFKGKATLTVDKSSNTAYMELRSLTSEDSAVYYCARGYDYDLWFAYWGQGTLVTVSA VL: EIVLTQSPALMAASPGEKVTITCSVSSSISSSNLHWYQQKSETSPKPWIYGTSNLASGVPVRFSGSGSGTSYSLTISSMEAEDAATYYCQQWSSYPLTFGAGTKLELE"
readout_value = 83

